These entries and their values trace back to PubChem BioAssay (EPA / NIEHS).

system_tested: human NIMA (Never In Mitosis Gene A)-Related Kinase 2 (NEK2), NEK2 (gene 4751) (UniProt P51955)
Sequence (P51955 whole entry, looked up): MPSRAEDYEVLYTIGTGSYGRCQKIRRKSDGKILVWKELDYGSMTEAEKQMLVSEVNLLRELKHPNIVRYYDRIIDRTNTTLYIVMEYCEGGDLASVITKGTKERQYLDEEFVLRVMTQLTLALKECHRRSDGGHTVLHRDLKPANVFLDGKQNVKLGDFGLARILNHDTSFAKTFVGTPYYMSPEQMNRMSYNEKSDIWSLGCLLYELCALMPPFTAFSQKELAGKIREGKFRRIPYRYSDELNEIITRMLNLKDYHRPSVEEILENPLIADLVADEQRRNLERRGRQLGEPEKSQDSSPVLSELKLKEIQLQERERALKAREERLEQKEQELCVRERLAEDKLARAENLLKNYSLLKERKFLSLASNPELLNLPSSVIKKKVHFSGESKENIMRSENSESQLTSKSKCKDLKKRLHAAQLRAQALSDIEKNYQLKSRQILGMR
assay_details: NVS_ENZ_hNEK2: NovaScreen (NVS) Enzymatic Assay for human NIMA (Never In Mitosis Gene A)-Related Kinase 2 (NEK2) (AID 2283188)
Records with an inconclusive call do not appear. Active and inactive are the calls of the source. How the source made its calls: active means hit-call score of the fitted dose curve at least 0.9, where 1 is the maximum; inconclusive means response in the unintended direction; inactive means score below 0.9.
Answer with one of the outcomes given here: active, inactive

Consider the following illustrative entries.
### Prompt State the result this test recorded for Oc1ccc(C(c2ccc(O)cc2)C(Cl)(Cl)Cl)cc1 .
### Response inactive

### Prompt Tell me the assay call for O=C(O)Cc1cc(I)c(Oc2ccc(O)c(I)c2)c(I)c1 please.
### Response inactive

### Prompt Hi, do you know how CN1C(=O)N(c2ccccc2Br)Cc2cnc(Nc3ccc4c(c3)OCC(CO)O4)nc21 (stereo not drawn) came out in this test?
### Response active

### Prompt Dear colleague, could you share the recorded outcome for Cc1nc(-c2ccccn2)ncc1C(=O)Nn1cc(C)c2cc(F)ccc21 when you have a moment?
### Response inactive

### Prompt Hi, do you know how c1ccc(C(O[C@@H]2CCCN(CCc3ccc4c(c3)OCO4)C2)c2ccccc2)cc1 came out in this test?
### Response inactive

More entries:
### Prompt Record request — test call for CN(C)c1ccc(N=NS(=O)(=O)O)cc1
### Response inactive

### Prompt Give the logged outcome of this assay for the following compound: Cc1ccc2ncccc2c1
### Response inactive

### Prompt What was the test verdict on CC(C)(C)c1csc(-c2cc3cc(OCc4ccccc4CC(=O)O)ccc3o2)n1 ?
### Response inactive

----------
assay_details: TOX21_p53_BLA_p4_viability: Viability Assessment in the Tox21 HCT-116 p53 Agonism Beta-lactamase Assay, Phase 4 (AID 2283597);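 further: hits lower the luminescence signal meaning cytotoxicity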
Records with an inconclusive call do not appear. Calls of active or inactive are those of the source. Rule for the calls: active = hit-call score of the fitted dose curve at least 0.9, where 1 is the maximum; inconclusive = response in the unintended direction; inactive = score below 0.9.
parameter_measured: outcome

### Prompt Kindly indicate its recorded outcome. Item: CCCCCCCCCCCOC(=O)c1ccccc1C(=O)OCCCCCCCCCCC
### Response inactive

### Prompt Identify outcome associated with the compound O=C1CCCCC1Cl (stereo not drawn)
### Response inactive

### Prompt Report outcome, nothing else, for this compound: O=C1c2ccccc2C(=O)c2ccccc21
### Response inactive

----------
assay_details: CCTE_Shafer_MEA_dev_firing_rate_mean: CCTE's Neural Network Formation Assay for Mean Firing Rate, Shafer Lab (AID 2284031);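 further: AUC of well mean spike rate recorded on DIV 5 7 9 and 12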;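 on AC50: curve fitted for loss of firing so AC50 reflects decreased mean firing rate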
Active and inactive are the calls of the source. Rule for the calls: active = hit-call score of the fitted dose curve at least 0.9, where 1 is the maximum; inactive = score below 0.9.
parameter_measured: AC50

# annotated cases, reported AC50 shown
### Prompt Please look at this molecule and report its AC50: [Cd+2].[Cl-].[Cl-]
### Response 0.331 µM (active)

### Prompt Supply recorded AC50 for CP(=O)(O)CCC(N)C(=O)O (stereo unspecified) here.
### Response inactive

### Prompt Note down AC50 recorded for C#CCN(C)[C@H](C)Cc1ccccc1
### Response inactive

### Prompt Return reported AC50. Input molecule: CC1(C)[C@H](C=C(Cl)Cl)[C@@H]1C(=O)O[C@@H](C#N)c1cccc(Oc2ccccc2)c1
### Response inactive

### Prompt Complete the entry with AC50 for Brc1ccc(Oc2ccc(Br)cc2Br)c(Br)c1
### Response inactive

Next:
### Prompt Using the record for CCOP(=O)(OCC)SCSC(C)(C)C , state its measured AC50.
### Response inactive

### Prompt Note AC50 for the molecule shown: CCOP(=O)(OCC)SCSCC
### Response inactive

### Prompt Look up and state reported AC50 for O=C(O)CNCP(=O)(O)O
### Response inactive

### Prompt Annotate the molecule Brc1ccc(Oc2cc(Br)c(Br)cc2Br)c(Br)c1 with its measured AC50.
### Response inactive

### Prompt Quick one: give measured AC50 for CC1(C)C(C=C(Cl)Cl)C1C(=O)O[C@H](C#N)c1cccc(Oc2ccccc2)c1 (stereo partly specified)
### Response 0.711 µM (active)
